test: Half life in Beagle dog at 0.5 mg/kg, po; type: ADME, organism-based, Canis lupus familiaris; design: dose 0.5 mg/kg, route oral; settings: in vivo
Could you please mark criterion met for values of half-life below 5 h and criterion not met for values at or above it?

# smiles_notation, cat
measured = [
    ("CC(C)CCNC(=O)C1(C(=O)N[C@H]2N=C(c3ccc(C(F)(F)F)cc3)c3ccccc3N(C)C2=O)CCC1", "criterion not met"),
    ("CC(C)CNC(=O)C1(C(=O)N[C@H]2N=C(c3ccccc3)c3ccccc3N(C)C2=O)CCC1", "criterion not met"),
    ("CC(C)CCNC(=O)C1(C(=O)N[C@@H]2C(=O)N(C)c3ccccc3-c3ccccc32)CCC1", "criterion not met"),
    ("CC(C)CNC(=O)C1(C(=O)N[C@@H]2C(=O)N(C)c3ccccc3-c3ccccc32)CCC1", "criterion met"),
    ("CN1C(=O)[C@@H](NC(=O)C2(C(=O)NCCC3CCCC3)CCC2)c2ccccc2-c2ccccc21", "criterion not met"),
    ("CC(C)C[C@H](O)NC(=O)C1(C(=O)N[C@H]2N=C(c3ccc(C(F)(F)F)cc3)c3ccccc3N(C)C2=O)CCC1", "criterion not met"),
]

----------
experiment: Oral bioavailability in Beagle dog at 0.5 mg/kg, po; format: ADME, organism-based, Canis lupus familiaris; details: in vivo
bioavailability for assorted molecules

# smiles_notation, bioavailability
measured = [
    ("CC(C)CCNC(=O)C1(C(=O)N[C@H]2N=C(c3ccc(C(F)(F)F)cc3)c3ccccc3N(C)C2=O)CCC1", "61%"),
    ("CC(C)CNC(=O)C1(C(=O)N[C@@H]2C(=O)N(C)c3ccccc3-c3ccccc32)CCC1", "47%"),
    ("CC(C)C[C@H](O)NC(=O)C1(C(=O)N[C@H]2N=C(c3ccc(C(F)(F)F)cc3)c3ccccc3N(C)C2=O)CCC1", "84%"),
    ("CC(C)CNC(=O)C1(C(=O)N[C@H]2N=C(c3ccccc3)c3ccccc3N(C)C2=O)CCC1", "42%"),
    ("CN1C(=O)[C@@H](NC(=O)C2(C(=O)NCCC3CCCC3)CCC2)c2ccccc2-c2ccccc21", "71%"),
    ("CC(C)CCNC(=O)C1(C(=O)N[C@@H]2C(=O)N(C)c3ccccc3-c3ccccc32)CCC1", "23%"),
]

----------
target: Gamma-secretase; experiment: Inhibition of gamma secretase-mediated beta amyloid production in NIH3T3 cells; assay type: cell-based, Homo sapiens

# smiles_notation, IC50 (nM)
measured = [
    ("CC(C)C[C@H](O)NC(=O)C1(C(=O)N[C@H]2N=C(c3ccc(C(F)(F)F)cc3)c3ccccc3N(C)C2=O)CCC1", 6.1),
]

----------
test: Cmax in Beagle dog at 0.5 mg/kg, po; assay type: ADME, organism-based, Canis lupus familiaris; parameters: dose 0.5 mg/kg, route oral; details: in vivo

# smiles_notation, Cmax / nM
records = [
    ("CN1C(=O)[C@@H](NC(=O)C2(C(=O)NCCC3CCCC3)CCC2)c2ccccc2-c2ccccc21", 365),
    ("CC(C)CCNC(=O)C1(C(=O)N[C@H]2N=C(c3ccc(C(F)(F)F)cc3)c3ccccc3N(C)C2=O)CCC1", 567),
    ("CC(C)CNC(=O)C1(C(=O)N[C@@H]2C(=O)N(C)c3ccccc3-c3ccccc32)CCC1", 184),
    ("CC(C)C[C@H](O)NC(=O)C1(C(=O)N[C@H]2N=C(c3ccc(C(F)(F)F)cc3)c3ccccc3N(C)C2=O)CCC1", 2980),
    ("CC(C)CNC(=O)C1(C(=O)N[C@H]2N=C(c3ccccc3)c3ccccc3N(C)C2=O)CCC1", 84),
    ("CC(C)CCNC(=O)C1(C(=O)N[C@@H]2C(=O)N(C)c3ccccc3-c3ccccc32)CCC1", 172),
]
